biological target: Glutamate NMDA receptor; experiment: Inhibition of [3H]5,7-dichlorokynurenic acid(DCKA) binding to N-methyl-d-aspartate receptors(NMDA) of rat brain cortical membranes; format: cell membranes, Membrane
Categories are defined by ranges of IC50, namely low = under 200 nM, medium = from 200 nM up to 2000 nM, high = 2000 nM and over

Smiles Code | Assigned Label
CC(=O)Nc1ccc2[nH]c(=O)c(O)cc(=O)c2c1 | high
O=c1cc(O)c2ccc(Br)cc2[nH]c1=O | low
O=c1cc(O)c2ccc(Cl)cc2[nH]c1=O | low

Kindly state the category for this compound: "Cc1ccc2c(O)cc(=O)c(=O)[nH]c2c1"
low

Into which bin does this compound go? "O=c1cc(O)c(=O)c2ccccc2[nH]1"
high

For this compound, which bin applies? "CCc1ccc2c(O)cc(=O)c(=O)[nH]c2c1"
high

Into which bin does this compound go? "Cc1cc2[nH]c(=O)c(O)cc(=O)c2c(C)c1[N+](=O)[O-]"
high

Sort into band: "Cc1cc2[nH]c(=O)c(O)cc(=O)c2cc1C"
medium

Input "Cc1cc(C)c2c(O)cc(=O)c(=O)[nH]c2c1" ; output its category
medium

====

assay: Ratio of binding affinities of NMDA / AMPA
Property Label: Ratio

Example entries and their recorded answers appear below.
Smiles Code | Ratio
O=c1cc(O)c2ccc(Br)cc2[nH]c1=O | 100
O=c1cc(O)c2ccccc2[nH]c1=O | 32
O=c1cc(O)c2ccc(F)cc2[nH]c1=O | 25
Cc1ccc2c(O)cc(=O)c(=O)[nH]c2c1 | 40

Give me measured Ratio, please, for this molecule: "Cc1cc2[nH]c(=O)c(O)cc(=O)c2cc1C"
44

Given the molecule "O=c1cc(O)c2ccc(Cl)cc2[nH]c1=O" , write its reported Ratio.
77

====

target: Glutamate NMDA receptor; assay: Inhibition of [3H]5,7-dichlorokynurenic acid(DCKA) binding to N-methyl-d-aspartate receptors(NMDA) of rat brain cortical membranes; type: cell membranes, Membrane
Quick reference for pIC50 among some compounds
Scale explanation: pIC50 corresponds to minus log10 of a concentration expressed in moles per litre.

Below are worked cases with known answers.
Smiles Code | pIC50
O=c1cc(O)c2ccccc2[nH]c1=O | 6.08
O=c1cc(O)c2ccc(F)cc2[nH]c1=O | 6.31
Cc1cccc2[nH]c(=O)c(O)cc(=O)c12 | 4.89

Now for another entry.
Please give measured pIC50 of the following entry: "O=c1cc(O)c2cc([N+](=O)[O-])ccc2[nH]c1=O"
4.92

The values you see were collected from ChEMBL document CHEMBL1129403.
